Biological target: CD71 on SK-BR-3 cells (human, UniProt P02786 1-760)
Sequence (P02786 whole entry): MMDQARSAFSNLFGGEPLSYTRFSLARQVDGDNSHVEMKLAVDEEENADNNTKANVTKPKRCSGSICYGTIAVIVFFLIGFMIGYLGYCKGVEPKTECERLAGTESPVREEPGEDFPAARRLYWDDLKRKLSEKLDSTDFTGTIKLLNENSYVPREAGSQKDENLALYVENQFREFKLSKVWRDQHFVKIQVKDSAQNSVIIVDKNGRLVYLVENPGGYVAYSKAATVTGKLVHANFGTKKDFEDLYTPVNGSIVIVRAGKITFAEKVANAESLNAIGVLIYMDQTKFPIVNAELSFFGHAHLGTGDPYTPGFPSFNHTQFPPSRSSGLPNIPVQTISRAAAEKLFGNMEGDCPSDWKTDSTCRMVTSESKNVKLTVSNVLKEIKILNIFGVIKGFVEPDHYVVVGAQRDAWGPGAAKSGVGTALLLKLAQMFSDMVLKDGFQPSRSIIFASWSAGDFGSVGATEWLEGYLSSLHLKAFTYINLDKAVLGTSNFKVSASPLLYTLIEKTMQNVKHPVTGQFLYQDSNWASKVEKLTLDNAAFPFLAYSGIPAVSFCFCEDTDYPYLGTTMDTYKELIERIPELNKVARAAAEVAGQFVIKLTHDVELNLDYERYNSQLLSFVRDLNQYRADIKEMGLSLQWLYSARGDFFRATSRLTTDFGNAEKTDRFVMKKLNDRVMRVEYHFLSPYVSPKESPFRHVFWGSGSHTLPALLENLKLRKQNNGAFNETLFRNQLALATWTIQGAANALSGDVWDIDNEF
Assay: cell-based or functional assay
property_measured: IC50, SKBR-3 viability, MMAF conjugate, first unlabelled column (+/- human transferrin)
Write the figure, then the unit, nothing else.

SEQ ID NO 168 (designed binder, FN3 domain) MLPAPKNLVVSRVTEDSARLSWTTPDAAFDSFFIGYLEPYPPGEAIVLTVPGSERSYDLTGLKPGTEYVVSIQGVKGGKPSDPLSAIFTT = 32 nM

Ask: So what does the record say about IC50, SKBR-3 viability, MMAF conjugate, first unlabelled column (+/- human transferrin) for SEQ ID NO 278 (designed binder, FN3 domain) MLPAPKNLVVSRVTEDSARLSWTAPDAAFDSFPIAYAEPRPDGEAIVLTVPGSERSYDLTGLKPGTEYSVLIHGVKGGHLSDPLSAIFTT ?
Reply: 13.2 nM
